# System: Renilla luciferase RNA
# assay.summary: Barcoded aptazyme variant library screen: un-cleaved Renilla luciferase RNA by barcode read counts, HEK293-T cells
# Format: cell-based
# experimental.conditions: un-cleaved Renilla luciferase RNA, HEK293-T cells cultured with 1 mM theophylline (ON) over without theophylline (OFF); barcode read counts, triplicate
Reported Fold change in RNA expression between the ON state and the OFF state by item:
Numeric only. Scale: fold

Example entries begin here.
molecule	data.value
RA130 (nucleic acid, expressed or natural sequence) DNA: GCGCGTCCTGGATTCGCGGAAACGCGTACATCCAGCTGAGAATACCAGCATCGTCTTGATGCCCTTGGAAGTCTCGACGAGTCCCAAATAGGACGAAACGCGC	1.4
RA256 (nucleic acid, expressed or natural sequence) DNA: GCGCGTCCTGGATTCGCGGAAACGCGTACATGAGAATACCAGCATCGTCTTGATGCCCTTGGAAGTCTCCCAGCTGACGAGTCCCAAATAGGACGAAACGCGC	1.1
RA275 (nucleic acid, expressed or natural sequence) DNA: GCGCGTCCTGGATTGAGAATACCAGCATCGTCTTGATGCCCTTGGAAGTCTCCGCGGAAACGCGTACATCCAGCTGACGAGTCCCAAATAGGACGAAACGCGC	1.0
RA092 (nucleic acid, expressed or natural sequence) DNA: GCGCGTCCTGGATTCGCGGAAACGCGTACATCCAGCTGACGAGTCCCAAATAGGACCGGAATACCAGCATCGTCTTGATGCCCTTGGAAGTCCGGCGAAACGCGC	1.6

In: For RA099 (nucleic acid, expressed or natural sequence) DNA: GCGCGTCCTGGATTCGCGGAAACGCGTACATAGTGATACCAGCATCGTCTTGATGCCCTTGGCAGCACTCCAGCTGACGAGTCCCAAATAGGACGAAACGCGC , what is its reported Fold change in RNA expression between the ON state and the OFF state?
Out: 1.6

In: Input RA128 (nucleic acid, expressed or natural sequence) DNA: GCGCGTCCTGGATTCGCGGAAACGCGTAAGTGATACCAGCATCGTCTTGATGCCCTTGGCAGCACTCATCCAGCTGACGAGTCCCAAATAGGACGAAACGCGC
Out: 1.4

In: Input RA211 (nucleic acid, expressed or natural sequence) DNA: GCGCGTCCTGGATTCGGGAATACCAGCATCGTCTTGATGCCCTTGGAAGTCCCGGAAACGCGTACATCCAGCTGACGAGTCCCAAATAGGACGAAACGCGC
Out: 1.2
